study-system: human PCSK9 (Homo sapiens, UniProt Q8NBP7)
Sequence (Q8NBP7 153-692): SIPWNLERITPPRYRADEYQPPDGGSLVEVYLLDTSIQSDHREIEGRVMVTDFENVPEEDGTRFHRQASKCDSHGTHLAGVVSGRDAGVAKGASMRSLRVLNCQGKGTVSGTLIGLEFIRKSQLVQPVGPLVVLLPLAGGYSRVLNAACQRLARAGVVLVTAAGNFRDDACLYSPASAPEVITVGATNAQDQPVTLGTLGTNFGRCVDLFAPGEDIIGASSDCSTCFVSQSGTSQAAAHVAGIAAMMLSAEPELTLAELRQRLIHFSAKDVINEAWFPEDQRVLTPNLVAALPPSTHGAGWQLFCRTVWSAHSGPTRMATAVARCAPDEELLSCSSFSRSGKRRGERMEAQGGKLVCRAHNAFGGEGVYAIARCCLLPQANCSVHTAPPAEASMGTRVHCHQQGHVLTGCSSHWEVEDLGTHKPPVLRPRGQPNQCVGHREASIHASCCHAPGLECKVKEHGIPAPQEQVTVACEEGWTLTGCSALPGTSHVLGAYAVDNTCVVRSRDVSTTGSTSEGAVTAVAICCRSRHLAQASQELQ
Sequence (Q8NBP7 31-152 partner limits assumed): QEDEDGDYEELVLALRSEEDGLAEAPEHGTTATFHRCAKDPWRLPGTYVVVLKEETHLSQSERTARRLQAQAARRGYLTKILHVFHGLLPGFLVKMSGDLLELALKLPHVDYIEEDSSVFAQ
protocol-details: PCSK9 ligand binding assay (TR-FRET): interference with binding of human PCSK9 to human LDLR
experimental-parameters: Human PCSK9 Alexa Fluor 647 / Human LDLR extracellular domain-Europium Kryptate
Description: Example 10: PCSK9 Ligand Binding Assay The PCSK9 binding of the compounds of the disclosure were measured using a time resolved fluorescence resonance energy transfer (TR-FRET) assay. This time resolved fluorescence resonance energy transfer (TR-FRET) assay measures the ability of a compound of the present disclosure to interfere with the binding of human PCSK9 to human LDLR, providing measures of both potency (IC50) and efficacy (Amax). Human PCSK9 Alexa Fluor 647 […]
pIC50: −log10 of the molar value.
readout-label: pIC50

Study these solved cases before continuing.
1. COC[C@@H]1NC(=O)[C@H](C)N(Cc2ccc(Cl)cc2Oc2ccc(-c3cnc(CN4CCN(C)CC4)n3C)cc2)C(=O)C[C@@H](Cc2ccccc2)C(=O)N2CCC[C@@](Cc3ccc(Cl)cc3)(C2)NC1=O.Cl    9.09
2. COC[C@@H]1NC(=O)[C@H](C)N(Cc2c(F)cc(Cl)cc2Oc2ccc(-c3cnc(CN(C)C4CCC4)n3C)cc2)C(=O)C[C@@H](CC(F)(F)F)C(=O)N2CCC[C@@](Cc3ccc(Cl)cc3)(C2)NC1=O    8.79
3. C[C@H]1C(=O)N[C@@H](CO)C(=O)N[C@@]2(Cc3ccc(Cl)cc3)CCCN(C2)C(=O)[C@H](CC2CC2)CC(=O)N1Cc1ccc(Cl)cc1Oc1ccc(-c2cnc(CN(C)C(C)(C)C)n2C)cc1    8.89

(P) C[C@H]1C(=O)N[C@@H](CO)C(=O)N(C)[C@@]2(Cc3ccc(Cl)cc3)CCCN(C2)C(=O)[C@H](Cc2c(F)cc(F)cc2F)CC(=O)N1Cc1ccc(Cl)cc1Oc1ccc(-c2cnc(CN(C)C)n2C)cc1
(Q) COC[C@@H]1NC(=O)[C@H](C)N(Cc2ccc(Cl)cc2Oc2ccc(-c3cnc(CN4CCCC4)n3C)cc2)C(=O)C[C@@H]([C@H]2CCc3ccccc32)C(=O)N(C)C[C@@H](Cc2ccc(Cl)cc2)N(C)C1=O.Cl
Qu. Of P and Q , whose reported pIC50 is numerically smaller? Lab note: record the label of whichever item you select.
Ans. Q
(Q: 8.71, P: 9.35)

(A) CC[C@@H]1CC(=O)N(Cc2ccc(Cl)cc2Oc2ccc(-c3cnc(CN4CCCC4)n3C)cc2)[C@@H](C)C(=O)N[C@@H](CO)C(=O)N[C@@]2(Cc3ccc(Cl)cc3)CCCN(C2)C1=O
(B) C[C@H]1C(=O)N[C@@H](CO)C(=O)N[C@@]2(Cc3ccc(Cl)cc3)CCCN(C2)C(=O)[C@H]([C@@H]2CCc3ccccc32)CC(=O)N1Cc1ccc(Cl)cc1Oc1ccc(-c2cnc(CN(C)C)n2C)cc1.Cl
Qu. # returns the entry with the larger pIC50; inputs A and B Lab note: record the label of whichever item you select.
Ans. A

----------
study-system: human PCSK9 (Homo sapiens, UniProt Q8NBP7)
protocol-details: PCSK9 ligand binding assay (TR-FRET): interference with binding of human PCSK9 to human LDLR
experimental-parameters: efficacy (Amax), 100% = 1 uM unlabeled human PCSK9, 0% = DMSO
readout-label: Max % inhibition (%)

1) C[C@H]1C(=O)N[C@@H](CO)C(=O)N[C@@]2(Cc3ccc(Cl)cc3)CCCN(C2)C(=O)[C@H](Cc2cccnc2)CC(=O)N1Cc1ccc(Cl)cc1Oc1ccc(-c2cnc(CN3CCOCC3)n2C)cc1.Cl    97.0
2) C[C@H]1C(=O)N[C@@H](CO)C(=O)N[C@@]2(Cc3ccc(Cl)cc3)CCCN(C2)C(=O)[C@H](Cc2ccccc2)OC(=O)N1Cc1ccc(Cl)cc1Oc1ccc(-c2cnc(CN(C)C)n2C)cc1.Cl    99.2
3) COC[C@@H]1NC(=O)[C@H](C)N(Cc2ccc(Cl)cc2Oc2ccc(-c3cnc(CN(C)C)n3C)nc2)C(=O)C[C@@H](Cc2ccccc2)C(=O)N2CCC[C@@](Cc3ccc(Cl)cc3)(C2)NC1=O    112.5
4) COC[C@@H]1NC(=O)[C@H](C)N(Cc2c(F)cc(Cl)cc2Oc2ccc(-c3cnc(CN)n3C)cc2)C(=O)C[C@@H](C2CC(F)(F)C2)C(=O)N2CCC[C@@](Cc3ccc(Cl)cc3)(C2)N(C)C1=O    98.1
5) C[C@H]1C(=O)N[C@@H](CO)C(=O)N[C@@]2(Cc3ccc(Cl)cc3)CCCN(C2)C(=O)CCC(=O)N1Cc1c(OCC(F)(F)F)cc(Cl)cc1Oc1ccc(-c2cnc(CN(C)C)n2C)cc1    104.5
6) COC[C@@H]1NC(=O)[C@H](C)N(Cc2c(F)cc(Cl)cc2Oc2ccc(-c3cnc(CN(C)C)n3C)cc2)C(=O)C[C@@H](CC(C)(F)F)C(=O)N2CCC[C@@](Cc3ccc(Cl)cc3)(C2)N(C)C1=O    110.3
7) COC[C@@H]1NC(=O)[C@H](C)N(Cc2c(F)cc(Cl)cc2Oc2ccc(-c3cnc(CNC(C)(C)C)n3C)cc2)C(=O)C[C@@H](C2CC(F)(F)C2)C(=O)N2CCC[C@@](Cc3ccc(Cl)cc3)(C2)N(C)C1=O    113.3
8) C[C@H]1C[C@H]([C@@H]2CC(=O)N(Cc3ccc(Cl)cc3Oc3ccc(-c4cnc(CN(C)C)n4C)cc3)[C@@H](C)C(=O)N[C@@H](CO)C(=O)N(C)[C@H](Cc3ccc(Cl)cc3)CN(C)C2=O)c2ccccc21.Cl    105.6
9) C[C@H]1C(=O)N[C@@H](CO)C(=O)N[C@@]2(Cc3ccc(Cl)cc3)CCCN(C2)C(=O)[C@H](CC2CC2)CC(=O)N1Cc1c(F)cc(Cl)cc1Oc1ccc(-c2cnc(CN(C)C(C)(C)C)n2C)cc1    111.6

Reference source: patent US11813306B2
